method: self-splicing fitness, log relative to wild type (ln ratio); higher = more splicing; Tetrahymena group I intron in knt gene, E. coli kanamycin selection, DiMSum; sequences stand for … in CUCUCU…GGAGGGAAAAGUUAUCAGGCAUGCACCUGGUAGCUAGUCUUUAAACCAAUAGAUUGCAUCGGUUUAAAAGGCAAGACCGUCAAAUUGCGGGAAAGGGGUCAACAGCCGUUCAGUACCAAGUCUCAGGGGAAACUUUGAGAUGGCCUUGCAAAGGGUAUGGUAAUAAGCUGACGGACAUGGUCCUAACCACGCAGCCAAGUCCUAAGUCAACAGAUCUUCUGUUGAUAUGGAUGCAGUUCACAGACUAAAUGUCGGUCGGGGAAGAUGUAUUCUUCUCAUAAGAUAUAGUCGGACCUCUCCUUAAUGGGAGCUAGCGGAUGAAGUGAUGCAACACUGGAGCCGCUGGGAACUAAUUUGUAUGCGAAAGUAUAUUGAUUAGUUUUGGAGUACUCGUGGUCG;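 note: selection with 25 µg/mL kanamycin versus none on LB agar overnight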
conditionDetails: 37 °C
quantityMeasured: self-splicing fitness (ln)

Use the examples below as a reference point.
UGUAAGCAAUAUUACGCUAA -0.75
UCCUAGCAAUAUUACGGAAU -2.1
UCUAAGCAAUAUUACGAUAC -2.95

For record CACGAGCAAUAUUACGAAUU the listed self-splicing fitness (ln) is -2.25

For record ACAGAGCAAUAUUACGCGCU the listed self-splicing fitness (ln) is -1.91

For record CUCGAGCAAUAUUACGUGGU the listed self-splicing fitness (ln) is -2.49

For record GAAUAGCAAUAUUACGUGAA the listed self-splicing fitness (ln) is -0.782

For record GUUCAGCAAUAUUACGUCCA the listed self-splicing fitness (ln) is -1.05

For record CGCGAGCAAUAUUACGAGUA the listed self-splicing fitness (ln) is -2.61

For record AAAUAGCAAUAUUACGCAUG the listed self-splicing fitness (ln) is -1.03

For record GACUAGCAAUAUUACGUAGC the listed self-splicing fitness (ln) is -1.4

For record GUAGAGCAAUAUUACGGCCC the listed self-splicing fitness (ln) is -0.935

For record GGAAAGCAAUAUUACGUGGC the listed self-splicing fitness (ln) is -2.46
